Test system: K24384-001-R-PDC complex spheroid growth
method: Anticancer human tumor K24384-001-R-PDC patient-derived pancreatic adenocarcinoma cell line growth inhibition [AhR]
condition.notes: second compound 1 µM; first compound 0.949 µM; stronger effect = lower value
Text: Multicellular complex tumor spheroid response to aryl hydrocarbon receptor antagonists in combination with a variety of drugs and investigational agents in selected tumor cell lines […] Compounds. […] If the clinical Cmax for an agent had not been determined, the highest concentration tested was 10 microM (Table 1). […]
// returns Condition not met unless viability, T/C is strictly below 90%, in which case Condition met

# compound, system.under.test, assigned.class
rows = [
    ("CCN(c1cc(-c2ccc(CN3CCOCC3)cc2)cc(C(=O)NCc2c(C)cc(C)[nH]c2=O)c1C)C1CCOCC1 + Cc1ccccc1N=Nc1ccc(NC(=O)c2ccnn2C)c(C)c1", "K24384-001-R-PDC complex spheroid growth", "Condition met"),
    ("O=C(C=Cn1cnc(-c2cc(C(F)(F)F)cc(C(F)(F)F)c2)n1)NNc1cnccn1 + Cc1cncc(-c2nc(NCCc3c[nH]c4ccccc34)c3ncn(C(C)C)c3n2)c1", "K24384-001-R-PDC complex spheroid growth", "Condition met"),
    ("O=C(C=Cn1cnc(-c2cc(C(F)(F)F)cc(C(F)(F)F)c2)n1)NNc1cnccn1 + CC(CO)NC(=O)c1cc(-c2ccc(Cl)cc2)nn(-c2cnn(C)c2)c1=O", "K24384-001-R-PDC complex spheroid growth", "Condition met"),
    ("O=C(C=Cn1cnc(-c2cc(C(F)(F)F)cc(C(F)(F)F)c2)n1)NNc1cnccn1 + Cc1ccccc1N=Nc1ccc(NC(=O)c2ccnn2C)c(C)c1", "K24384-001-R-PDC complex spheroid growth", "Condition met"),
    ("CCN(c1cc(-c2ccc(CN3CCOCC3)cc2)cc(C(=O)NCc2c(C)cc(C)[nH]c2=O)c1C)C1CCOCC1 + Cc1cncc(-c2nc(NCCc3c[nH]c4ccccc34)c3ncn(C(C)C)c3n2)c1", "K24384-001-R-PDC complex spheroid growth", "Condition not met"),
]

// switching to the query compound
Query: Threshold test, viability, T/C < 90%: CCN(c1cc(-c2ccc(CN3CCOCC3)cc2)cc(C(=O)NCc2c(C)cc(C)[nH]c2=O)c1C)C1CCOCC1 + CC(CO)NC(=O)c1cc(-c2ccc(Cl)cc2)nn(-c2cnn(C)c2)c1=O
Reply: Condition not met

----------
Tested on: K24384-001-R-PDC complex spheroid growth
method: Anticancer human tumor K24384-001-R-PDC cell line growth inhibition [AhR]
condition.notes: curve of first compound; second compound 0.1 µM
pIC50: −log10 of the molar value.
reported.endpoint: pIC50

Examples from the recorded data:
# compound, pIC50
records = [
    ("CC1(C)CCC(CN2CCN(c3ccc(C(=O)NS(=O)(=O)c4ccc(NCC5CCOCC5)c([N+](=O)[O-])c4)c(Oc4cnc5[nH]ccc5c4)c3)CC2)=C(c2ccc(Cl)cc2)C1 + Cc1ccccc1N=Nc1ccc(NC(=O)c2ccnn2C)c(C)c1", "< 5.00"),
    ("Cn1ncnc1C1c2n[nH]c(=O)c3cc(F)cc(c23)NC1c1ccc(F)cc1 (stereo not drawn) + Cc1cncc(-c2nc(NCCc3c[nH]c4ccccc34)c3ncn(C(C)C)c3n2)c1", "< 7.00"),
]

Query: Form field: reported pIC50 of CC[C@@]1(O)C(=O)OCc2c1cc1n(c2=O)Cc2cc3c(CN(C)C)c(O)ccc3nc2-1 + CC(CO)NC(=O)c1cc(-c2ccc(Cl)cc2)nn(-c2cnn(C)c2)c1=O
Reply: 7.12

Origin of measurements: PubChem BioAssay AID1919009
